assay.system: UniProt:Q8VH26
Sequence (Q8VH26 whole entry): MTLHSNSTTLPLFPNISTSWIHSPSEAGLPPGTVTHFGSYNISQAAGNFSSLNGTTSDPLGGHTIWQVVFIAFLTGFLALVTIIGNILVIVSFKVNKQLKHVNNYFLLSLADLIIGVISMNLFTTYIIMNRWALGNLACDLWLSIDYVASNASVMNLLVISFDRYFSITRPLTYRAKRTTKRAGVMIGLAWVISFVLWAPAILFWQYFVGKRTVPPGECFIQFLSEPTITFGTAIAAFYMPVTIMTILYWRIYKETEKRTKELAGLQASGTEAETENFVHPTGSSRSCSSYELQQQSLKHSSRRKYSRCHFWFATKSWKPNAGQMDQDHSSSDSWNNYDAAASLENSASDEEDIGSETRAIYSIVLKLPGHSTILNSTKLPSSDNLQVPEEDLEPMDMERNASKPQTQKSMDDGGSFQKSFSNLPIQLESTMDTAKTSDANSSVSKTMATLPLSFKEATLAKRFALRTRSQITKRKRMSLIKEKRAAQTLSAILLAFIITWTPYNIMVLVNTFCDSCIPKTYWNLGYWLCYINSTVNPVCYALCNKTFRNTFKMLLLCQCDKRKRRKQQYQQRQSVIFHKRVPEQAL
test.method.notes: Antagonist affinity evaluated against Muscarinic acetylcholine receptor M3 in isolated guinea pig longitudinal Ileum.
Format: functional, tissue-based
cond: read-out: pA2 (converted)
outcome.measure: Kb (nM)

CN(CCCCCCN)CCCCCCCCN(C)CCCCCCNCC(=O)N1c2ccccc2C(=O)Nc2cccnc21; 275

P = CN(CCCCCCCCN(C)CCCCCCN(CC(=O)N1c2ccccc2NC(=O)c2cccnc21)CC(=O)N1c2ccccc2NC(=O)c2cccnc21)CCCCCCNCC(=O)N1c2ccccc2NC(=O)c2cccnc21
Q = COc1ccccc1CNCCCCCCNCCCCCCCCNCCCCCCNCc1ccccc1OC [METHOCTRAMINE]
R = CN(CCCCCCN)CCCCCCCCN(C)CCCCCCNCCCC(=O)N1c2ccccc2C(=O)Nc2cccnc21
// query Your job: order these 3 records by Kb, ascending. // ordering of labels required in reply
// result R, Q, P
(R: 4.79 nM, Q: 363 nM, P: 912 nM)

Ref: ChEMBL document CHEMBL1131294
